Collected pKd values appear next to each entry.
Target: Protease (Human immunodeficiency virus 1, UniProt Q9YQ12)
Sequence (Q9YQ12 whole entry): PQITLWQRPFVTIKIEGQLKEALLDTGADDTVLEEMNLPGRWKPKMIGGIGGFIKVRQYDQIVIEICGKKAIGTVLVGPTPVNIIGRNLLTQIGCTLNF
Assay: Binding affinity to Human immunodeficiency virus 1 protease by SPR biosensor interaction analysis at pH 4.1
Field pKd (float): negative decimal logarithm of the concentration in molar.

compound	measured.number
CC(=O)N[C@H](C(=O)N[C@H](C(=O)N[C@@H](CC(C)C)[C@@H](O)CC(=O)N[C@@H](C)C(=O)N[C@@H](CC(C)C)[C@@H](O)CC(=O)O)C(C)C)C(C)C [ACETYLPEPSTATIN]	6.68
CNC(=O)[C@@H](NC(=O)[C@H](OCc1ccccc1)[C@H](O)[C@@H](O)[C@@H](OCc1ccccc1)C(=O)N[C@H](C(=O)NC)C(C)C)C(C)C	8.53
O=C(N[C@H]1c2ccccc2C[C@H]1O)[C@H](OCc1ccccc1)[C@H](O)[C@@H](O)[C@@H](OCc1ccccc1)C(=O)N[C@H]1c2ccccc2C[C@H]1O	8.94
O=C1N(Cc2ccc(CO)cc2)[C@H](COc2ccccc2)[C@H](O)[C@@H](O)[C@@H](COc2ccccc2)N1Cc1ccc(CO)cc1	8.74

From here, focus on the item given below.
Look at this compound and give its reported pKd. "Cc1c(O)cccc1C(=O)N[C@@H](CSc1ccccc1)[C@H](O)CN1C[C@H]2CCCC[C@H]2C[C@H]1C(=O)NC(C)(C)C"
7.42

* * *

Biological target: UniProt:Q9YQ12
Assay: Binding affinity to Human immunodeficiency virus 1 protease by SPR biosensor interaction analysis at pH 5.1
measured.metric: Kd (nM)
Entry rule: numbers only, all in nM.

# example entries with known answers
compound	measured.metric	units.symbol	measured.number
O=C1N(Cc2ccc(CO)cc2)[C@H](COc2ccccc2)[C@H](O)[C@@H](O)[C@@H](COc2ccccc2)N1Cc1ccc(CO)cc1	Kd	nM	1.84
Cc1c(O)cccc1C(=O)N[C@@H](CSc1ccccc1)[C@H](O)CN1C[C@H]2CCCC[C@H]2C[C@H]1C(=O)NC(C)(C)C	Kd	nM	2.99
CNC(=O)[C@@H](NC(=O)[C@H](OCc1ccccc1)[C@H](O)[C@@H](O)[C@@H](OCc1ccccc1)C(=O)N[C@H](C(=O)NC)C(C)C)C(C)C	Kd	nM	3
O=C(N[C@H]1c2ccccc2C[C@H]1O)[C@H](OCc1ccccc1)[C@H](O)[C@@H](O)[C@@H](OCc1ccccc1)C(=O)N[C@H]1c2ccccc2C[C@H]1O	Kd	nM	1

From here, focus on the item given below.
Record lookup: for UniProt:Q9YQ12, what Kd belongs to CC(=O)N[C@H](C(=O)N[C@H](C(=O)N[C@@H](CC(C)C)[C@@H](O)CC(=O)N[C@@H](C)C(=O)N[C@@H](CC(C)C)[C@@H](O)CC(=O)O)C(C)C)C(C)C [ACETYLPEPSTATIN] ?
759

* * *

Target: Protease (Human immunodeficiency virus 1, UniProt Q9YQ12)
Assay: Binding affinity to Human immunodeficiency virus 1 protease by SPR biosensor interaction analysis at pH 7.4
The label Yes is reserved for Kd strictly under 10 nM; No covers values equal to or above it.

Some solved cases for reference:
> print(dat)
                         chemical.structure  cat
1  CC(=O)N[C@H](C(=O)N[C@H](C(=O)N[C@@H](CC(C)C)[C@@H](O)CC(=O)N[C@@H](C)C(=O)N[C@@H](CC(C)C)[C@@H](O)CC(=O)O)C(C)C)C(C)C   No
2  O=C1N(Cc2ccc(CO)cc2)[C@H](COc2ccccc2)[C@H](O)[C@@H](O)[C@@H](COc2ccccc2)N1Cc1ccc(CO)cc1  Yes
3  CNC(=O)[C@@H](NC(=O)[C@H](OCc1ccccc1)[C@H](O)[C@@H](O)[C@@H](OCc1ccccc1)C(=O)N[C@H](C(=O)NC)C(C)C)C(C)C   No
4  O=C(N[C@H]1c2ccccc2C[C@H]1O)[C@H](OCc1ccccc1)[C@H](O)[C@@H](O)[C@@H](OCc1ccccc1)C(=O)N[C@H]1c2ccccc2C[C@H]1O   No

Field: below-cutoff. Rule: recorded Kd strictly less than 10 nM. Subject: "Cc1c(O)cccc1C(=O)N[C@@H](CSc1ccccc1)[C@H](O)CN1C[C@H]2CCCC[C@H]2C[C@H]1C(=O)NC(C)(C)C"
Yes
